Test: Half life in human plasma by […] analysis
parameter_measured: log10(half-life) (log10 of the value in min)
Record value = log10 of half-life given in min.

Before answering, review these 3 worked examples.
CCCCOc1nc(N)c2[nH]c(=O)n(Cc3cccc(CC(=O)OCC)c3)c2n1	0.95
CCCCOc1nc(N)c2[nH]c(=O)n(Cc3cccc(CC(=O)OC)c3)c2n1	0.41
CCCCOc1nc(N)c2[nH]c(=O)n(Cc3ccc(CC(=O)OC)cc3)c2n1	1.34

Can you share its log10(half-life)? I mean this molecule: COCCOc1nc(N)c2[nH]c(=O)n(Cc3cccc(CC(=O)OC)c3)c2n1
0.15

Endpoint output: log10(half-life) of CCCCOc1nc(N)c2[nH]c(=O)n(Cc3cc(CC(=O)OC)ccc3OC)c2n1 . Value?
1.99

Param item = CCCCOc1nc(N)c2[nH]c(=O)n(Cc3ccc(F)c(CC(=O)OC)c3)c2n1 ; retrieve measured log10(half-life).
1.12

----------
Biological target: Toll-like receptor 7 (Homo sapiens)
Sequence (Q9NYK1 whole entry): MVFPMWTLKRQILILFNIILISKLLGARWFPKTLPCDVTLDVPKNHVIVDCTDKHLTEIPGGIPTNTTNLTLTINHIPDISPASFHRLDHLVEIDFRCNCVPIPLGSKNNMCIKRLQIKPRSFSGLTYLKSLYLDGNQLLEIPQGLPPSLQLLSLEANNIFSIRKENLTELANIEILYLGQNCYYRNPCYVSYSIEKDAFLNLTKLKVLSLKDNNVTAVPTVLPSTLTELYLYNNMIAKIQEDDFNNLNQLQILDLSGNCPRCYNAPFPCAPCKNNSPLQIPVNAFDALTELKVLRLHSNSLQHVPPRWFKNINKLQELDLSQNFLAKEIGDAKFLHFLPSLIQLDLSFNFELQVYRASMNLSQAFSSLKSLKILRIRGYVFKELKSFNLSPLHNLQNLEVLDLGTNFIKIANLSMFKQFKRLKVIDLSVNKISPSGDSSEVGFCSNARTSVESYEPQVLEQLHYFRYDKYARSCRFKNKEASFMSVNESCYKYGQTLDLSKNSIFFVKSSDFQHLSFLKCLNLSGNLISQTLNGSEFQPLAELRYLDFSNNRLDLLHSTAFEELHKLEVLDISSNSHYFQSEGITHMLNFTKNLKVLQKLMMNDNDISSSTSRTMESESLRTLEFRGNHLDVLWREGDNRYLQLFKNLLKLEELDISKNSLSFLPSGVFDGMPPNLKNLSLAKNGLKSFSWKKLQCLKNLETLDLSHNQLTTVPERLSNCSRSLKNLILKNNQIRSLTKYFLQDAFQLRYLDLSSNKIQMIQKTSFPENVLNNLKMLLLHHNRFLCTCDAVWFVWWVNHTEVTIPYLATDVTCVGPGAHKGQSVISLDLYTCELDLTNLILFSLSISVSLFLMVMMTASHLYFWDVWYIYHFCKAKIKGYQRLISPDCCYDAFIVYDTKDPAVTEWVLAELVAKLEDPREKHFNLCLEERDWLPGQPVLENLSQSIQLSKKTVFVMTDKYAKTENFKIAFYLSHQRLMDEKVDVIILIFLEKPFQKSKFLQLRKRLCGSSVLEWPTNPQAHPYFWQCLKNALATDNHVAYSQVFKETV
Assay: Agonist activity at human TLR7 expressed in HEK293 cells coexpressing pNiFty2-SEAP reporter by reporter gene assay
parameter_measured: log10(EC50) (log10 of the value in nM)
Hey, these are logged values: log10 of EC50, nM being the unit before logging.

Completed entries (count: 8):
CCCCOc1nc(N)c2[nH]c(=O)n(Cc3ccc(CC(=O)OC)cc3)c2n1	1.01
CCCCOc1nc(N)c2[nH]c(=O)n(Cc3cc(CC(=O)OC)ccc3OC)c2n1	2.03
CCCCOc1nc(N)c2[nH]c(=O)n(Cc3ccc(F)c(CC(=O)OC)c3)c2n1	1.41
COCCOc1nc(N)c2[nH]c(=O)n(Cc3ccccc3)c2n1	2.60
CCCCOc1nc(N)c2nc(O)n(Cc3ccccc3)c2n1	1.80
COCCOc1nc(N)c2[nH]c(=O)n(Cc3cccc(CC(=O)OC)c3)c2n1	2.49
CCCCOc1nc(N)c2[nH]c(=O)n(Cc3cccc(CCC(=O)OC)c3)c2n1	1.94
CCCCOc1nc(N)c2[nH]c(=O)n(Cc3cccc(CC(=O)OCC)c3)c2n1	2.27

Now look at this one.
Which log10(EC50) is reported for this compound? CCCCOc1nc(N)c2[nH]c(=O)n(Cc3ccccc3C(=O)OC)c2n1
2.78

----------
Target: Toll-like receptor 8 (Homo sapiens, UniProt Q9NR97)
Sequence (Q9NR97 whole entry): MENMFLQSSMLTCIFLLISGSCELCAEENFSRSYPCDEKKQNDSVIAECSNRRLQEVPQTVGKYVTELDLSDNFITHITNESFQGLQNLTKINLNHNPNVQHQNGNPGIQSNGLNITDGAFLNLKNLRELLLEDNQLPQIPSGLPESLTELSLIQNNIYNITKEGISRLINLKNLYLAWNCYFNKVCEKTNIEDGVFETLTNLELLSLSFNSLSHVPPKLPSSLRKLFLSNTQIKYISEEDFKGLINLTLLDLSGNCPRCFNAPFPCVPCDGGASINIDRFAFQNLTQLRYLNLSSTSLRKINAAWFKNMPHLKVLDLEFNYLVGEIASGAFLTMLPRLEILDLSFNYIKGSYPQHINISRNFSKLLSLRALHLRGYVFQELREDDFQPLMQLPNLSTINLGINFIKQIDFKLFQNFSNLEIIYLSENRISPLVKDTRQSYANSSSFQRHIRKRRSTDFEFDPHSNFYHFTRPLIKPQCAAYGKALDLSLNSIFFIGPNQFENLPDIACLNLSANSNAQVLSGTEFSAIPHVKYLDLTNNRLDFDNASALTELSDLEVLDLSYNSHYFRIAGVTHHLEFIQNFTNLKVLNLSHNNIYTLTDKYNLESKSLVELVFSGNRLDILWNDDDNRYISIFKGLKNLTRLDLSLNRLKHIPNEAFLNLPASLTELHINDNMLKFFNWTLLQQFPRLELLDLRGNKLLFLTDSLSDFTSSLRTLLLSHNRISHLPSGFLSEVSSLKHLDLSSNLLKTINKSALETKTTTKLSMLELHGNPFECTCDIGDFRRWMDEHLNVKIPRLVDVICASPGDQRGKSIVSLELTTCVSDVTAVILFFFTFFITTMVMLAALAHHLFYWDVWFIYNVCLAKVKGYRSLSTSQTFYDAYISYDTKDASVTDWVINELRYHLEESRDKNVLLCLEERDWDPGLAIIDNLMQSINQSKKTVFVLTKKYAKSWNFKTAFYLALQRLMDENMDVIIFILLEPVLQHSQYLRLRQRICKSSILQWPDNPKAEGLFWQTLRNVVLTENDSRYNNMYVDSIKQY
Assay: Agonist activity at TLR8
pEC50: −log10 of the molar value.
parameter_measured: pEC50

Which pEC50 value is on record for CCCCOc1nc(N)c2[nH]c(=O)n(Cc3cccc(CC(=O)OC)c3)c2n1 ?
< 5.00

----------
Molecular target: Toll-like receptor 7 (Homo sapiens)
Sequence (Q9NYK1 whole entry): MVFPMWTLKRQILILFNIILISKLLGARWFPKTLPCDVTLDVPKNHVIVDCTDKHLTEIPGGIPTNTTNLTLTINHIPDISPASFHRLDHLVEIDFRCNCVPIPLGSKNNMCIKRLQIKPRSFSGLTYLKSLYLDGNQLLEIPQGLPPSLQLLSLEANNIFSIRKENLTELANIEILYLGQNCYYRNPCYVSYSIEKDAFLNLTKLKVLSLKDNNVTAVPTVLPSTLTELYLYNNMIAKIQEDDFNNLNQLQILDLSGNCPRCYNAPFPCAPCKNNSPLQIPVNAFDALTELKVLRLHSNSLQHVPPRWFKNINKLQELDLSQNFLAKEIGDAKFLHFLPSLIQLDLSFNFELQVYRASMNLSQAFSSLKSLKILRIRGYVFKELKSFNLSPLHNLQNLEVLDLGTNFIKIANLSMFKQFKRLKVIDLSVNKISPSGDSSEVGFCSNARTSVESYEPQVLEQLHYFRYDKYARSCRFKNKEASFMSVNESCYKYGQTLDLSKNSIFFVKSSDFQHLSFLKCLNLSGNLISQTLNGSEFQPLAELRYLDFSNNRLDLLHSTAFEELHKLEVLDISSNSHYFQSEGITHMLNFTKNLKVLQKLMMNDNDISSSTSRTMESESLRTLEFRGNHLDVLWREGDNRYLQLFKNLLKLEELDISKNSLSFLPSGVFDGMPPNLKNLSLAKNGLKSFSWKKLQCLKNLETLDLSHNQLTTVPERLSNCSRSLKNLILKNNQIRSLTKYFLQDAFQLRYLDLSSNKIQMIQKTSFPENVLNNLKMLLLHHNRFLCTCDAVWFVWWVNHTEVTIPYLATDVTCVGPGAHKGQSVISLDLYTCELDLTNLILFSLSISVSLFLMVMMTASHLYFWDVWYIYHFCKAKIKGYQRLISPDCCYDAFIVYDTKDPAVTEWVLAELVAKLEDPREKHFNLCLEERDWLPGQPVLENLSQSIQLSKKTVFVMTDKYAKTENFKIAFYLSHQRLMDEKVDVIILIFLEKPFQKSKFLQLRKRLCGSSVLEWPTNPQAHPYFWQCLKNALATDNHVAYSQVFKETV
Assay: Agonist activity at human TLR7 expressed in HEK293 cells coexpressing pNiFty2-SEAP reporter by reporter gene assay
parameter_measured: EC50 (µM)
Number in µM, nothing else.

CCCCOc1nc(N)c2[nH]c(=O)n(Cc3cccc(C(=O)OC)c3)c2n1	0.0515
CCCCOc1nc(N)c2[nH]c(=O)n(Cc3ccc(C(=O)OC)cc3)c2n1	0.0729
CCCCOc1nc(N)c2[nH]c(=O)n(Cc3cccc(CC(=O)OC)c3)c2n1	0.0501

Write down the reported EC50 of CCCCOc1nc(N)c2[nH]c(=O)n(Cc3ccc(OC)c(CC(=O)OC)c3)c2n1 , test system: Toll-like receptor 7 (Homo sapiens).
0.0081

Query the reported EC50 for Toll-like receptor 7 (Homo sapiens); item: CCCCOc1nc(N)c2[nH]c(=O)n(Cc3ccccc3CC(=O)OC)c2n1
0.467

Form entry - test system: Toll-like receptor 7 (Homo sapiens); read-out: EC50; compound: CCCCOc1nc(N)c2[nH]c(=O)n(Cc3cccc(C(C)C(=O)OC)c3)c2n1 (stereo unspecified)
0.075
